The measurements presented in this section are drawn from patent US20260297085A1.

Attribute: IC50
molecular target: human TYK2 kinase domain (JH1) (Homo sapiens, UniProt P29597); construct: recombinantly generated catalytic kinase (also known as JH1) domain of human JAK1, JAK2, JAK3 and TYK2; assay: JH1 biochemical assay for TYK2 (ADP-Glo kinase assay, recombinant JH1 catalytic domain, JAK3-974 peptide, 10 μM ATP); settings: TYK2 JH1, ADP-Glo
Sequence (P29597 897-1176 limits assumed): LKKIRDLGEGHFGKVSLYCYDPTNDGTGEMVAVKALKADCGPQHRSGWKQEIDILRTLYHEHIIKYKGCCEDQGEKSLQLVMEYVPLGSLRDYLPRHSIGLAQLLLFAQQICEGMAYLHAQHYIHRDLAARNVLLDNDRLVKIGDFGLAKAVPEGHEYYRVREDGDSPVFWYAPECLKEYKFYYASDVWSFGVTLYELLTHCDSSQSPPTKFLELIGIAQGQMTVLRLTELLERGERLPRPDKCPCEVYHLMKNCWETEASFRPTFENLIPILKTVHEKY
Counter-ions that a name gives are not always drawn.

# Compound, IC50
records = [
    ("Cc1ncc(-c2cn3nccc3c(N3C[C@@H](C)[C@@](C#N)(C4CC4)C3=O)n2)s1", "< 5 nM"),
    ("C[C@@H]1CN(c2nc(-c3cncc(C(F)(F)F)c3)cn3nccc23)C(=O)[C@]1(C#N)C1CC1 [Example 260, trifluoroacetate]", "50 to 100 nM"),
    ("C[C@@H]1CN(c2ccnc3cc(-c4cnn(C5CC5)c4)oc23)C(=O)[C@]1(C#N)C1CC1", "< 5 nM"),
    ("C[C@@H]1CN(c2cc(-c3cnn(C)c3)cc3nccn23)C(=O)[C@]1(C#N)C1CC1", "> 100 nM"),
    ("C[C@@H]1CN(c2nc(-c3cnn(C45CC(C#N)(C4)C5)c3)cn3ncc(F)c23)C(=O)[C@]1(C#N)C1CC1", "< 5 nM"),
    ("COc1ncccc1-c1cn2nccc2c(N2C[C@@H](C)[C@@](C#N)(C3CC3)C2=O)n1", "20 to 50 nM"),
    ("CO[C@H]1C[C@H](n2cc(-c3cc4ncsc4c(N4C[C@@H](C)[C@@](C#N)(C5CC5)C4=O)n3)cn2)C1", "< 5 nM"),
]
